Molecular target: Diacylglycerol lipase-beta (Mus musculus) (UniProt Q91WC9)
Sequence (whole entry): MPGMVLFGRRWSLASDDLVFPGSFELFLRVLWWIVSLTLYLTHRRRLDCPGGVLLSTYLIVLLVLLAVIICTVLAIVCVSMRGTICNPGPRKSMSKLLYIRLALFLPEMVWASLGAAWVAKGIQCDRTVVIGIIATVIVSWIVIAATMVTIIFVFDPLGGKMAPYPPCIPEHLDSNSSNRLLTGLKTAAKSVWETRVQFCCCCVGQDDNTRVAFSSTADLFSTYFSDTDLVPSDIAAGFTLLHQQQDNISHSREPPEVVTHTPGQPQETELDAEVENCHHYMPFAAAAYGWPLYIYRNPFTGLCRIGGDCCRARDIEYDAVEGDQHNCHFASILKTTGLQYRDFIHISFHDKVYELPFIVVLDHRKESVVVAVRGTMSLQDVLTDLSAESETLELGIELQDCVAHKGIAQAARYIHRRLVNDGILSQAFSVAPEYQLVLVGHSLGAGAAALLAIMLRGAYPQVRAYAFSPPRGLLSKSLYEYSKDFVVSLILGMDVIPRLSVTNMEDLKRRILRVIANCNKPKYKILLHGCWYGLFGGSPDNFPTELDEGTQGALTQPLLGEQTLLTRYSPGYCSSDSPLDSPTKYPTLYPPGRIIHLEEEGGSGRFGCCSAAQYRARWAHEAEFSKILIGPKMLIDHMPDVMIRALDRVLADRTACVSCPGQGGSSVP
Experiment: Inhibition of FP-rhodamine-labelled recombinant mouse DAGLbeta expressed in HEK293T cells at 100 nM preincubated for 30 mins followed by FP-rhodamine labelling measured after 30 mins by gel-based competitive ABPP assay
Format: cell-based
Conditions: HEK-293T
Response key: Satisfied means inhibition >= 10%; Not satisfied means inhibition < 10%.

Solved entries:
>  <compound>
COc1ccccc1-c1ccc(-c2cn(C(=O)N3CCCCC3Cc3ccccc3)nn2)cc1 (racemic)

>  <label class>
Satisfied

$$$$
>  <compound>
O=C(N1CCCCC1Cc1ccccc1)n1cc(-c2ccc(-c3cccc(CO)c3)cc2)nn1 (racemic)

>  <label class>
Satisfied

$$$$
>  <compound>
COc1ccccc1-c1ccc(-c2cn(C(=O)N3CCCCC3c3ccccc3)nn2)cc1 (racemic)

>  <label class>
Satisfied

$$$$
>  <compound>
COc1ccc(-c2ccc(-c3cn(C(=O)N4CCCCC4c4ccccc4)nn3)cc2)cc1 (racemic)

>  <label class>
Not satisfied

$$$$

Consider now this further compound.
INPUT: Check the entry O=C(c1ccc(-c2ccc(-c3cn(C(=O)N4CCCCC4Cc4ccccc4)nn3)cc2)cc1)N1CCCCC1 (racemic) : does inhibition equal or exceed 10%?
OUTPUT: Satisfied

Hello, the source for this data is ChEMBL document CHEMBL3259629, in case you need it.
